Taken from ChEMBL document CHEMBL1149515.

assayMethodText: Stability in human liver microsome at 1uM
Type: ADME
measurementConditions: liver microsomes
Form field: half-life at 1 µM (one value per entry).
reportedMetric: half-life at 1 µM

compound=c1cnc(N2CCN(c3nccn4ccnc34)CC2)nc1 measuredvalue="45 min"
compound=CC(C)(C)NC(=O)c1cn2ccnc2c(N2CCN(c3ncccn3)CC2)n1 measuredvalue="3 min"
compound=c1cn2ccnc2c(N2CCN(C3CCCC3)CC2)n1 measuredvalue="> 120 min"
compound="O=C(NC1CCNC1)c1cn2ccnc2c(N2CCN(c3ccccn3)CC2)n1 (configuration not stated)" measuredvalue="> 120 min"
compound=CCN1CCC(NC(=O)c2nc(N3CCN(c4ncccn4)CC3)c3nccn3c2C)CC1 measuredvalue="> 120 min"
compound=c1cn2ccnc2c(-c2ccc(N3CCCC3)nc2)n1 measuredvalue="14 min"
compound=CN1CCC(NC(=O)c2cn3ccnc3c(N3CCN(c4ccccn4)CC3)n2)CC1 measuredvalue="> 120 min"
